# ASSAY_NOTES: In vitro metabolic stability, kidney brush border membrane preparations (KBBM)
# Format: in vitro ADME
# Parameters: unit not given here
# CONDITION_PARAMETERS: mouse kidney brush border membrane preparation, 37° C.
MEASURED_METRIC: In vitro Stability (mouse) - KBBM

SUBSTANCE	In vitro Stability (mouse) - KBBM
C319 (CAXEKIAALSEIIWLPCLTYAQIXAFIAXLNXDPCQSSEILSEAXELCS; DOTA-PEG4 N-term, methyllysines, citrulline, C-amide; SITE 3 trimethyllysine; SITE 24 dimethyllysine; SITE 29 monomethyllysine; SITE 32 citrulline; SITE 45 monomethyllysine) [Compound C319]	>12

Name the reported In vitro Stability (mouse) - KBBM value associated with the substance C493 (CAREKINALGEIIWLPCLTYDQIXAFIAXLNDDPCQSSEILSEAXELCS; not fully specified; DOTA-PEG4, methyl-Lys, C-terminal amide; SITE 24 monomethyllysine; SITE 29 monomethyllysine; SITE 45 monomethyllysine) [Compound C493]
>12
